# TARGET ENTITY: ZFPc (synthetic)
# Sequence (chain, as listed by the source): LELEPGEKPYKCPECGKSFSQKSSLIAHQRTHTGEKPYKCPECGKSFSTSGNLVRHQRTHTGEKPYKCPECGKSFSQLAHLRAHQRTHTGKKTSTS
# PROCEDURE DETAILS: SPR; HBS-EP, 1:1 with drifting baseline
# CONDITIONS: tags: MBP fusion (pMAL); label: 5'-biotin sense strand (SPR)
MEASURED METRIC: Kd

                                     binder  measurement
0  ZFPc target oligo (dsDNA) DNA 1: AGTACTAGAGATATAAGTACT DNA 2: AGTACTTATATCTCTAGTACT        99 nM

meta.source: patent US20110015122
